# Tested on: DIGSA
# measurement protocol: Post-emergence herbicidal action against DIGSA
# Assay type: in vivo, Digitaria sanguinalis
# run conditions: 80 g/ha, visual assessment about 3 weeks after treatment vs untreated controls
Listing: Post-emergence action against DIGSA in % of selected molecules

- molecule: "CC#Cc1cc(F)c(C2=C(OC(=O)OCC)C3(CCC(COCC)C3)NC2=O)c(OC)c1 (stereo not drawn) [Example P-69]"
  Post-emergence action against DIGSA in % / %: 80
- molecule: "C=CCOCC1CCC2(C1)NC(=O)C(c1c(C)cc(C#CC)cc1OC)=C2OC(=O)OCC (stereo not drawn)"
  Post-emergence action against DIGSA in % / %: 90
- molecule: "C#CCOCC1CCC2(C1)NC(=O)C(c1c(F)cc(C#CC)cc1OC)=C2O (stereo not drawn) [Example I-75]"
  Post-emergence action against DIGSA in % / %: 90
- molecule: "CC#Cc1cc(C)c(C2=C(O)C3(CCC(COCC)C3)NC2=O)c(OC)c1 (stereo not drawn) [Example I-32]"
  Post-emergence action against DIGSA in % / %: 100
- molecule: "CC#Cc1cc(Cl)c(C2=C(OC(=O)OCC)C3(CCC(COCC)C3)NC2=O)c(OC)c1 (stereo not drawn)"
  Post-emergence action against DIGSA in % / %: 100
- molecule: "CC#Cc1cc(F)c(C2=C(OC(=O)C(C)C)C3(CCC(COC)C3)NC2=O)c(OC)c1 (stereo not drawn) [Example P-65]"
  Post-emergence action against DIGSA in % / %: 100

###

In this section, each of the compounds is paired with its reported Pre-emergence action against AMARE in %.
# Tested on: AMARE
# measurement protocol: Pre-emergence herbicidal action against AMARE
# Type: in vivo, Amaranthus retroflexus
# run conditions: 320 g/ha
reported metric: Pre-emergence action against AMARE in % (%)

- compound: "CC#Cc1cc(C)c(C2=C(OC(=O)OCC)C3(CCC(COCCOC)C3)NC2=O)c(Cl)c1 (centres unmarked) [Example P-76]"
  reported metric: "Pre-emergence action against AMARE in %"
  quantitative readout: 100
- compound: "C#CCOCC1CCC2(C1)NC(=O)C(c1c(F)cc(C#CC)cc1OC)=C2OC(=O)OCC (centres unmarked) [Example P-102]"
  reported metric: "Pre-emergence action against AMARE in %"
  quantitative readout: 90
- compound: "C=CCOCC1CCC2(C1)NC(=O)C(c1c(C)cc(C#CC)cc1Cl)=C2O (centres unmarked) [Example I-46]"
  reported metric: "Pre-emergence action against AMARE in %"
  quantitative readout: 100
- compound: "CC#Cc1cc(F)c(C2=C(OC(=O)C(C)C)C3(CCC(COCC)C3)NC2=O)c(OC)c1 (centres unmarked) [Example P-67]"
  reported metric: "Pre-emergence action against AMARE in %"
  quantitative readout: 80
- compound: "CC#Cc1cc(C)c(C2=C(O)C3(CCC(COCC)C3)NC2=O)c(F)c1 (centres unmarked) [Example I-35]"
  reported metric: "Pre-emergence action against AMARE in %"
  quantitative readout: 90
- compound: "C#CCOCC1CCC2(C1)NC(=O)C(c1c(C)cc(C#CC)cc1OC)=C2OC(=O)OCC (centres unmarked) [Example P-103]"
  reported metric: "Pre-emergence action against AMARE in %"
  quantitative readout: 100
- compound: "CC#Cc1cc(C)c(C2=C(OC(=O)C(C)C)C3(CCC(COC)C3)NC2=O)c(F)c1 (centres unmarked) [Example P-57]"
  reported metric: "Pre-emergence action against AMARE in %"
  quantitative readout: 80
- compound: "CC#Cc1cc(C)c(C2=C(OC(=O)C(C)C)C3(CCC(COC)C3)NC2=O)c(Br)c1 (centres unmarked) [Example P-33]"
  reported metric: "Pre-emergence action against AMARE in %"
  quantitative readout: 100
- compound: "CC#Cc1cc(C)c(C2=C(OC(=O)C(C)C)C3(CCC(COC)C3)NC2=O)c(F)c1 (centres unmarked) [Example P-58]"
  reported metric: "Pre-emergence action against AMARE in %"
  quantitative readout: 90
- compound: "CC#Cc1cc(C)c(C2=C(O)C3(CCC(COC)C3)NC2=O)c(Br)c1 (centres unmarked) [Example I-18]"
  reported metric: "Pre-emergence action against AMARE in %"
  quantitative readout: 100
- compound: "C=CCOCC1CCC2(C1)NC(=O)C(c1c(C)cc(C#CC)cc1Cl)=C2O (centres unmarked) [Example I-44]"
  reported metric: "Pre-emergence action against AMARE in %"
  quantitative readout: 100

###

The following compounds are shown together with reported Pre-emergence action against VERPE in % values.
# System: VERPE
# measurement protocol: Pre-emergence herbicidal action against VERPE
# Format: in vivo, Veronica persica
# run conditions: 320 g/ha
reported metric: Pre-emergence action against VERPE in % (%)

- compound: "CC#Cc1cc(C)c(C2=C(OC(=O)C(C)C)C3(CCC(COCC)C3)NC2=O)c(Br)c1 (stereo not shown) [Example P-37]"
  quantitative readout: 80
- compound: "CC#Cc1cc(C)c(C2=C(OC(=O)OCC)C3(CCC(COCC)C3)NC2=O)c(OC)c1 (stereo not shown) [Example P-48]"
  quantitative readout: 80
- compound: "CC#Cc1cc(C)c(C2=C(OC(=O)C(C)C)C3(CCC(COCC)C3)NC2=O)c(OC)c1 (stereo not shown) [Example P-50]"
  quantitative readout: 80
- compound: "CC#Cc1cc(C)c(C2=C(OC(=O)C(C)C)C3(CCC(COCC)C3)NC2=O)c(OC)c1 (stereo not shown) [Example P-60]"
  quantitative readout: 80
- compound: "CC#Cc1cc(C)c(C2=C(OC(=O)C(C)C)C3(CCC(COCC)C3)NC2=O)c(Br)c1 (stereo not shown) [Example P-36]"
  quantitative readout: 80
- compound: "CC#Cc1cc(F)c(C2=C(OC(=O)OCC)C3(CCC(COCC)C3)NC2=O)c(OC)c1 (stereo not shown) [Example P-61]"
  quantitative readout: 90
- compound: "C=CCOCC1CCC2(C1)NC(=O)C(c1c(C)cc(C#CC)cc1Cl)=C2OC(=O)OCC (stereo not shown) [Example P-71]"
  quantitative readout: 90
- compound: "CC#Cc1cc(C)c(C2=C(OC(=O)OCC)C3(CCC(COC)C3)NC2=O)c(Br)c1 (stereo not shown) [Example P-31]"
  quantitative readout: 90
- compound: "CC#Cc1cc(C)c(C2=C(O)C3(CCC(COCCC)C3)NC2=O)c(Cl)c1 (stereo not shown)"
  quantitative readout: 90
- compound: "CC#Cc1cc(Cl)c(C2=C(O)C3(CCC(COC)C3)NC2=O)c(OC)c1 (stereo not shown)"
  quantitative readout: 90

###

Listed here: items and their measured Post-emergence action against DIGSA in %.
# Tested on: DIGSA
# measurement protocol: Post-emergence herbicidal action against DIGSA
# Format: in vivo, Digitaria sanguinalis
# run conditions: 80 g/ha, visual assessment about 3 weeks after treatment vs untreated controls
reported metric: Post-emergence action against DIGSA in %

- compound: "C#Cc1cc(Cl)c(C2=C(OC(=O)OCC)C3(CCC(COC)C3)NC2=O)c(OC)c1 (stereo not drawn) [Example P-19]"
  reported metric: "Post-emergence action against DIGSA in %"
  result: "90%"
- compound: "C=CCOCC1CCC2(C1)NC(=O)C(c1c(C)cc(C#CC)cc1OC)=C2O (stereo not drawn) [Example I-45]"
  reported metric: "Post-emergence action against DIGSA in %"
  result: "90%"
- compound: "CC#Cc1cc(C)c(C2=C(OC(=O)C(C)C)C3(CCC(COCC)C3)NC2=O)c(Cl)c1 (stereo not drawn) [Example P-17]"
  reported metric: "Post-emergence action against DIGSA in %"
  result: "100%"
- compound: "CC#Cc1cc(Cl)c(C2=C(OC(=O)C(C)C)C3(CCC(COCC)C3)NC2=O)c(CC)c1 (stereo not drawn) [Example P-12]"
  reported metric: "Post-emergence action against DIGSA in %"
  result: "100%"
- compound: "CC#Cc1cc(C)c(C2=C(OC(=O)OCC)C3(CCC(COCC)C3)NC2=O)c(F)c1 (stereo not drawn) [Example P-53]"
  reported metric: "Post-emergence action against DIGSA in %"
  result: "100%"
- compound: "CC#Cc1cc(C)c(C2=C(O)C3(CCC(COCCC)C3)NC2=O)c(OC)c1 (stereo not drawn) [Example I-58]"
  reported metric: "Post-emergence action against DIGSA in %"
  result: "90%"
- compound: "C#Cc1cc(Cl)c(C2=C(O)C3(CCC(COCC)C3)NC2=O)c(OC)c1 (stereo not drawn) [Example I-14]"
  reported metric: "Post-emergence action against DIGSA in %"
  result: "90%"
- compound: "C#CCOCC1CCC2(C1)NC(=O)C(c1c(F)cc(C#CC)cc1OC)=C2OC(=O)OCC (stereo not drawn) [Example P-102]"
  reported metric: "Post-emergence action against DIGSA in %"
  result: "90%"
- compound: "CC#Cc1cc(Cl)c(C2=C(O)C3(CCC(COCC)C3)NC2=O)c(CC)c1 (stereo not drawn) [Example I-15]"
  reported metric: "Post-emergence action against DIGSA in %"
  result: "100%"
- compound: "C=CCOCC1CCC2(C1)NC(=O)C(c1c(C)cc(C#CC)cc1Cl)=C2O (stereo not drawn) [Example I-46]"
  reported metric: "Post-emergence action against DIGSA in %"
  result: "90%"
- compound: "CC#Cc1cc(F)c(C2=C(O)C3(CCC(COC)C3)NC2=O)c(OC)c1 (stereo not drawn) [Example I-41]"
  reported metric: "Post-emergence action against DIGSA in %"
  result: "100%"
- compound: "CC#Cc1cc(Cl)c(C2=C(OC(=O)OCC)C3(CCC(COC)C3)NC2=O)c(OC)c1 (stereo not drawn) [Example P-98]"
  reported metric: "Post-emergence action against DIGSA in %"
  result: "100%"
- compound: "CC#Cc1cc(F)c(C2=C(O)C3(CCC(COCC)C3)NC2=O)c(OC)c1 (stereo not drawn) [Example I-42]"
  reported metric: "Post-emergence action against DIGSA in %"
  result: "100%"
- compound: "CC#Cc1cc(Cl)c(C2=C(OC(=O)OCC)C3(CCC(COCC)C3)NC2=O)c(CC)c1 (stereo not drawn) [Example P-20]"
  reported metric: "Post-emergence action against DIGSA in %"
  result: "100%"
- compound: "CC#Cc1cc(F)c(C2=C(O)C3(CCC(COCCC)C3)NC2=O)c(OC)c1 (stereo not drawn) [Example I-57]"
  reported metric: "Post-emergence action against DIGSA in %"
  result: "90%"
- compound: "CC#Cc1cc(C)c(C2=C(OC(=O)C(C)C)C3(CCC(COCC)C3)NC2=O)c(Cl)c1 (stereo not drawn) [Example P-03]"
  reported metric: "Post-emergence action against DIGSA in %"
  result: "100%"
- compound: "CC#Cc1cc(C)c(C2=C(OC(=O)OCC)C3(CCC(COCCOC)C3)NC2=O)c(Cl)c1 (stereo not drawn) [Example P-76]"
  reported metric: "Post-emergence action against DIGSA in %"
  result: "90%"
- compound: "CC#Cc1cc(Br)c(C2=C(OC(=O)OCC)C3(CCC(COC)C3)NC2=O)c(OC)c1 (stereo not drawn) [Example P-08]"
  reported metric: "Post-emergence action against DIGSA in %"
  result: "100%"
- compound: "CC#Cc1cc(C)c(C2=C(OC(=O)OCC)C3(CCC(COCC)C3)NC2=O)c(Cl)c1 (stereo not drawn) [Example P-28]"
  reported metric: "Post-emergence action against DIGSA in %"
  result: "100%"
- compound: "CC#Cc1cc(Cl)c(C2=C(OC(=O)C(C)C)C3(CCC(COCC)C3)NC2=O)c(OC)c1 (stereo not drawn) [Example P-25]"
  reported metric: "Post-emergence action against DIGSA in %"
  result: "100%"
- compound: "CC#Cc1cc(F)c(C2=C(OC(=O)C(C)C)C3(CCC(COC)C3)NC2=O)c(OC)c1 (stereo not drawn) [Example P-66]"
  reported metric: "Post-emergence action against DIGSA in %"
  result: "100%"
- compound: "CC#Cc1cc(C)c(C2=C(OC(=O)OCC)C3(CCC(COCCOC)C3)NC2=O)c(OC)c1 (stereo not drawn) [Example P-79]"
  reported metric: "Post-emergence action against DIGSA in %"
  result: "90%"
- compound: "CC#Cc1cc(C)c(C2=C(OC(=O)OCC)C3(CCC(COC)C3)NC2=O)c(F)c1 (stereo not drawn) [Example P-52]"
  reported metric: "Post-emergence action against DIGSA in %"
  result: "100%"
- compound: "CC#Cc1cc(C)c(C2=C(OC(=O)C(C)C)C3(CCC(COC)C3)NC2=O)c(OC)c1 (stereo not drawn) [Example P-46]"
  reported metric: "Post-emergence action against DIGSA in %"
  result: "100%"
